Ok so here's the combined literature set: pIC50 for Vascular endothelial growth factor receptor 2 (Homo sapiens, UniProt P35968).
pIC50: −log10 of the molar value.

Some solved entries appear below for comparison.
> print(dat)
                                        mol                             system.tested  result
1  Cn1cc(-c2cnc3[nH]cc(C(=O)c4cccc(NS(=O)(=O)c5cccc(Cl)c5)c4)c3c2)cn1  Vascular endothelial growth factor receptor 2 (Homo sapiens, UniProt P35968)  ≥ 5.00
2  COc1ccc(Nc2ncc(NC(=O)c3cc(NC(=O)c4cccc(C(F)(F)F)c4)ccc3Cl)cn2)cc1  Vascular endothelial growth factor receptor 2 (Homo sapiens, UniProt P35968)    7.64

Asked: Endpoint output: pIC50 of COc1ncc(CNc2ccc(Cc3c[nH]c4ncncc34)c(F)n2)cc1F . Value?
Given back: ≥ 5.00

----------
pIC50: −log10 of the molar value.
Ok so here's the combined literature set: pIC50 for UniProt P35968.

Some solved entries appear below for comparison.
> print(dat)
                                   molecule  quantity.measured        result
1  CCOc1cccc(C(=O)Nc2cccc(Oc3ccnc(-c4cnn(C)c4)c3)c2)c1              pIC50        ≥ 5.00
2  COc1cc(OC)cc(N(CCO)c2ccc3ncc(-c4ccc(N5CCN(C)CC5)nc4)nc3c2)c1              pIC50          6.45
3  O=C(Nc1ccc(F)cc1)C1(C(=O)Nc2ccc(Oc3ccnc4cc(OCCCN5CCOCC5)c5c(c34)OCCO5)cc2Cl)CC1              pIC50  6.30 to 7.30
4  [2H]C([2H])([2H])NC(=O)c1coc2cc(Oc3ccnc4cc(OC)c(C(N)=O)cc34)c(Cl)cc12              pIC50  6.70 to 7.30
5  CS(=O)(=O)Nc1cccc(-c2cnc3[nH]cc(C(=O)c4cc(NS(=O)(=O)C5CCCC5)ccc4F)c3c2)c1              pIC50        ≥ 5.00

Asked: Endpoint output: pIC50 of Clc1cc(Nc2ncnc3nn4ccccc4c23)ccc1OCc1ccccc1 . Value?
Given back: < 5.00

Asked: Endpoint output: pIC50 of Cn1cc(C(=O)Nc2ccc(Oc3ccnc4cc(OCCCN5CCOCC5)c5c(c34)OCCO5)cc2Cl)c(=O)n(-c2ccc(F)cc2)c1=O . Value?
Given back: 5.30 to 6.30

Asked: Endpoint output: pIC50 of c1cc(Cc2c[nH]c3ncccc23)cc(OCCOC2CCCCO2)c1 (centres unmarked) . Value?
Given back: ≥ 5.00

----------
Ok so here's the combined literature set: pIC50 for Vascular endothelial growth factor receptor 2 (Homo sapiens, UniProt P35968).
FYI, pIC50 means -log10 of a concentration in mol per litre.

Asked: pIC50 of COc1ccc(OC2CCN(c3ccc(-c4cc(C#CC(C)(C)O)cn5ncc(C#N)c45)cn3)CC2)cn1 on Vascular endothelial growth factor receptor 2 (Homo sapiens, UniProt P35968)?
Given back: 8.80

Asked: pIC50 of Cc1[nH]c2c(c1C(=O)NCCN1CCOCC1)CCC/C2=C1/C(=O)Nc2ccc(Cl)cc21 on Vascular endothelial growth factor receptor 2 (Homo sapiens, UniProt P35968)?
Given back: 7.51

Asked: pIC50 of COc1cc2nccc(Oc3ccc(NC(=O)NC4CC4)c(Cl)c3)c2cc1C(=O)NCC#N on Vascular endothelial growth factor receptor 2 (Homo sapiens, UniProt P35968)?
Given back: 8.55

Asked: pIC50 of CN1CCC(c2ccc(C(=O)Nc3n[nH]c4nc(Nc5ccccc5)ccc34)cc2)CC1 on Vascular endothelial growth factor receptor 2 (Homo sapiens, UniProt P35968)?
Given back: 9.00

----------
Ok so here's the combined literature set: pIC50 for Vascular endothelial growth factor receptor 2 (Homo sapiens).
pIC50: −log10 of the molar value.

Some solved entries appear below for comparison.
> print(dat)
                                   molecule  result
1  Cc1[nH]c(/C=C2\C(=O)Nc3ccc(F)cc32)c(C)c1NC(=O)C1CCCN(C(=O)N(C)C)C1 (centres unmarked)    7.11
2  C=CC(=O)Nc1cc2c(Nc3ccc(Br)cc3F)ncnc2cc1OCC1CCN(C(=O)C(F)(F)F)CC1    6.60
3  COc1ccc(Cc2ccc3c(=O)c4cc(C)cc(OCCN(C)C)c4oc3c2)cn1  < 5.00
4          Nc1nc(Nc2cncc(Br)c2)nn1-c1ccccn1    7.40
5  O=C(c1c(F)ccc(NS(=O)(=O)c2csc3ccccc23)c1F)c1c[nH]c2ncc(Cl)cc12  ≥ 5.00

Asked: Endpoint output: pIC50 of COc1cccc(C(=O)Nc2cccc([C@H](C)Nc3cncc(-c4cccc(N5CCOCC5)c4)n3)c2)c1 . Value?
Given back: > 7.00

Asked: Endpoint output: pIC50 of COc1cc(OC)cc(N(CC2CC2)c2ccc3ncc(-n4ccnc4C)nc3c2)c1 . Value?
Given back: < 6.00

Asked: Endpoint output: pIC50 of CCCS(=O)(=O)Nc1ccc(F)c(Nc2ccnc3ccc(-c4cccnc4F)cc23)c1F . Value?
Given back: < 5.52

Asked: Endpoint output: pIC50 of Cc1cc(Oc2cc(NC(=O)C3CC3)ncn2)ncc1NC(=O)Nc1ccc(Cl)c(C(F)(F)F)c1 . Value?
Given back: 8.03

Asked: Endpoint output: pIC50 of CCn1cc(C(=O)Nc2cc(F)c(Oc3ccnc4cc(OCCOC)c5c(c34)OCCO5)cc2C)c(=O)n(-c2ccc(F)cc2)c1=O . Value?
Given back: 5.30 to 6.30

Asked: Endpoint output: pIC50 of CCCS(=O)(=O)Nc1ccc(F)c(C(=O)c2c[nH]c3ncc(-c4ccnn4C)cc23)c1F . Value?
Given back: ≥ 5.00

Asked: Endpoint output: pIC50 of CCCS(=O)(=O)Nc1ccc(F)c(C(=O)c2c[nH]c3ncc(-c4cccc(O)c4)cc23)c1F . Value?
Given back: ≥ 5.00

Asked: Endpoint output: pIC50 of COc1cnc2c(Oc3ccc(NC(=O)c4cnc(C)c(C5=CCOCC5)c4O)cc3F)ccnc2c1 . Value?
Given back: ≥ 7.00

Asked: Endpoint output: pIC50 of CCCS(=O)(=O)Nc1ccc(F)c(C(=O)c2c[nH]c3ncc(OC)cc23)c1F . Value?
Given back: ≥ 5.00

----------
Ok so here's the combined literature set: pIC50 for Vascular endothelial growth factor receptor 2 (Homo sapiens, UniProt P35968).
pIC50: −log10 of the molar value.

> print(dat)
                                        mol  quantity.measured        result
1  O=C1Nc2ncc(-c3ccsc3)cc2C1=CNc1ccc2cn[nH]c2c1              pIC50  5.00 to 6.00
2  C=CC(=O)Nc1cc2c(Nc3ccc(Br)cc3F)ncnc2cc1OCCNC(=O)c1cccs1              pIC50          6.89
3  CC(C)(O)COc1cc(-c2ccc(N3C[C@@H]4[C@@H](CNS(=O)(=O)c5c(F)cccc5Cl)[C@@H]4C3)nc2)c2c(C#N)cnn2c1              pIC50        < 7.00
4  COc1cc2nccc(Oc3cc(Br)c4c(C(=O)N5CC(F)(F)C5)coc4c3)c2cc1C(N)=O              pIC50  6.00 to 6.70
5  COc1c(C)cc(-c2cc3nccc(Nc4ccc5[nH]ccc5c4C)c3o2)cc1C              pIC50  5.52 to 6.52
6  COc1cc2nccc(Oc3ccc(NC(=S)N4CC[C@@H](O)C4)c(Cl)c3)c2cc1C(N)=O              pIC50  6.70 to 7.30

// switching to the query compound
Asked: Endpoint output: pIC50 of O=C(c1cccc(Cl)c1Cl)c1c[nH]c2ncc(-c3cccnc3)cc12 . Value?
Given back: ≥ 5.00

----------
Ok so here's the combined literature set: IC50 for Vascular endothelial growth factor receptor 2 (Homo sapiens).

> print(dat)
                                   molecule                             system.tested    result
1  CCOc1cc(-c2cnc(N3C[C@@H]4[C@H](C3)[C@H]4NC(=O)c3ncccc3Cl)cn2)c2c(C#N)cnn2c1  Vascular endothelial growth factor receptor 2 (Homo sapiens)  > 100 nM

Asked: IC50 of C[Si](C)(C)CCS(=O)(=O)N=S(C)(=O)c1ccc2cc1NCCCCNc1nc(ncc1Br)N2 (racemic) on Vascular endothelial growth factor receptor 2 (Homo sapiens)?
Given back: 22 nM

Asked: IC50 of CCN(CC)c1ccc(Nc2ncc(-c3cccc(OC)c3)o2)cn1 on Vascular endothelial growth factor receptor 2 (Homo sapiens)?
Given back: < 10000 nM
